Test system: MCF-7 cells
Assay: Breast cancer cell viability assay (CellTiter-Glo, 5 days)
Type: cell-based
Conditions: Homo sapiens, MCF7, 120 h, 5 days' compound exposure
Listing of entries alongside the reported IC50.
property: IC50

>>> df
                                 itemsmiles  targetentity  readoutvalue
0  CC/C(=C(/c1ccc(/C=C/C(=O)O)cc1)c1ccc2[nH]ncc2c1)c1ccc(Oc2ccccc2)c(F)c1   MCF-7 cells      ≤ 100 nM
1  CC/C(=C(/c1ccc(/C=C/C(=O)O)cc1)c1ccc2cncn2c1)c1ccccc1   MCF-7 cells      > 100 nM
2  CC/C(=C(/c1ccc(/C=C/C(=O)O)cc1)c1ccc2[nH]ncc2c1)c1cccc(Oc2ccc(S(C)(=O)=O)nc2)c1   MCF-7 cells      > 100 nM
3  CC/C(=C(/c1ccc(/C=C/C(=O)O)cc1)c1ccc2[nH]ncc2c1)c1cccc(-c2ccncc2)c1   MCF-7 cells      > 100 nM
4  CC/C(=C(/c1ccc(/C=C/C(=O)O)cc1)c1ccc2c(c1)CNC2=O)c1ccc(F)cc1Cl   MCF-7 cells      ≤ 100 nM
5  CC/C(=C(/c1ccc(/C=C/C(=O)O)cc1)c1ccc2c(c1)C(=O)NC2)c1ccccc1   MCF-7 cells      > 100 nM
6  CC/C(=C(/c1ccc(/C=C/C(=O)O)cc1)c1ccc2c(cnn2-c2ccccc2)c1)c1ccccc1   MCF-7 cells      > 100 nM
